Hi there, I'd appreciate the recorded growth for every entry that follows.
Test system: E. coli TESEC Mtb Alr
assay.notes: growth (OD600 after 10 h); higher = more growth (less inhibition)
stated.conditions: arabinose 100 nM; compound 0.1 mM; raw OD600 reference: median of DMSO wells 0.413, cell-free background 0.052
Where a name gives a salt, the structure may show the parent alone.
Note: the reply should be a number with no unit written.

Recorded result, O=C(Cn1ccnc1[N+](=O)[O-])NCCO [Etanidazole] , growth: 0.406

Recorded result, CCOc1ccc2ccccc2c1C(=O)N[C@@H]1C(=O)N2[C@@H]1SC(C)(C)[C@@H]2C(=O)O [Nafcillin sodium salt monohydrate] , growth: 0.403

Recorded result, Cc1cnc(C(=O)O)c[n+]1[O-] [Acipimox] , growth: 0.41

Recorded result, CC(CCc1ccc(O)cc1)NCCc1ccc(O)c(O)c1 (centres undefined) [Dobutamine hydrochloride] , growth: 0.409

Recorded result, N=C(N)NC(=O)c1nc(Cl)c(N)nc1N [Amiloride hydrochloride dihydrate] , growth: 0.407

Recorded result, O=C1C(O)=C(O)C(=O)C(O)=C1O [Tetrahydroxy-1,4-quinone hydrate] , growth: 0.399

Recorded result, O=C1CC2(CCCC2)CC(=O)N1CCCCN1CCN(c2ncccn2)CC1 [Buspirone hydrochloride] , growth: 0.411

Recorded result, CN1CCN(C(c2ccccc2)c2ccc(Cl)cc2)CC1 (centres undefined) [Chlorcyclizine hydrochloride] , growth: 0.416

Recorded result, COc1cc(C)nc(-n2nc(C)cc2OC)n1 [Epirizole] , growth: 0.421

Recorded result, S=c1[nH]cnc2nc[nH]c12 [Mercaptopurine] , growth: 0.334

Recorded result, CCn1cc(C(=O)O)c(=O)c2cc(F)c(N3CCN(C)CC3)cc21 [Pefloxacine] , growth: 0.0539

Recorded result, CCCCCCC[N+](CC)(CC)CCCCc1ccc(Cl)cc1 [Clofilium tosylate] , growth: 0.0551

Recorded result, O=C1c2ccccc2C(=O)C1c1ccccc1 [Phenindione] , growth: 0.408

Recorded result, O=S(=O)(O)CCS [Mesna] , growth: 0.425

Recorded result, CN(C)CC/C=C1\c2ccccc2CSc2ccccc21 [Dosulepin hydrochloride] , growth: 0.413

Recorded result, Nc1nc(F)nc2c1ncn2[C@@H]1O[C@H](CO)[C@@H](O)[C@@H]1O [Fludarabine] , growth: 0.411

Recorded result, O=C(O)c1ccccc1OP(=O)(O)O [Fosfosal] , growth: 0.405

Recorded result, CCC1=C(C)CN(C(=O)NCCc2ccc(S(=O)(=O)NC(=O)N[C@H]3CC[C@H](C)CC3)cc2)C1=O [Glimepiride] , growth: 0.411

Recorded result, COc1ccc2c3c1O[C@H]1C[C@@H](O)C=C[C@@]31CCN(C)C2 [Galanthamine hydrobromide] , growth: 0.409

Origin of values: the supplement of paper PMC9262897
